Sourced from patent EP2886536A1

system: HT-29; experiment: cells; format: cell-based; conditions: Homo sapiens, HT-29, 96 h, read-out: IC50 values
Counter-ions that a name gives are not always drawn.
The entries below come with measured IC50 values attached.
READOUT TYPE: IC50

[[record]]
compound = "Cn1c(CCCC(=O)O)nc2cc(N(CCCl)CCCl)ccc21 [bendamustine-HCl, reference compound]"
result = "> 100 µM"

[[record]]
compound = "Cl.Cn1c(CCCC(=O)O)nc2ccc(N(CCCl)CCCl)cc21 [iso-bendamustine-HCl]"
result = "> 100 µM"

[[record]]
compound = "CCOC(=O)CCCc1nc2ccc(N(CCCl)CCCl)cc2n1C"
result = "11 µM"

